- test: DSSTox (CPDBAS) Carcinogenic Potency Database Summary SingleCellCall Results
- measurement conditions: animal chronic carcinogenicity bioassays, CPDB summary call
Activity calls are given as the source filed them.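 Rule for the calls: active = a tumor-causing dose value with its tumor site reported for any sex and species group of a rodent or other animal cancer study; inconclusive = only studies judged inadequate by the national testing program; inactive = tested in at least one study, none positive.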
One label from this list, please: 1.0 for active, 0.0 for inactive

Check out these entries, answers already filled in.
CC(=O)[O][Hg][c]1ccccc1 : 0.0
NC(CCC(=O)O)C(=O)O (stereo not given) : 0.0
Nc1ncc([N+](=O)[O-])s1 : 1.0
CCC1C(=O)OCC1Cc1cncn1C (stereo not given) : 0.0
CCC(C)c1cc([N+](=O)[O-])cc([N+](=O)[O-])c1O (stereo not given) : 0.0

Task: Record lookup: outcome of this test for ClC(Cl)=C(Cl)Cl ?
Result: 1.0

Task: Record lookup: outcome of this test for [O]=[Bi] ?
Result: 0.0

Task: Record lookup: outcome of this test for COc1ccc(N)cc1 ?
Result: 0.0

Task: Record lookup: outcome of this test for CC1(C)C(=O)NC(=O)NC1=O ?
Result: 0.0

Task: Record lookup: outcome of this test for CC(N)=O ?
Result: 1.0

Task: Record lookup: outcome of this test for O=[N+]([O-])c1ccc(-c2cscn2)o1 ?
Result: 1.0

Task: Record lookup: outcome of this test for CN(C)c1ccc(N=Nc2ccccc2)cc1 ?
Result: 1.0

Task: Record lookup: outcome of this test for Nc1ccc2ccccc2c1S(=O)(=O)O ?
Result: 0.0

Task: Record lookup: outcome of this test for Cl/C=C/CCl ?
Result: 1.0

Provenance of the data: PubChem BioAssay AID1189
